# targetSystem: interaction between GMPPNP-bound recombinant K-Ras4B G12C mutant protein and cRAF RAS-binding domain (cRAF-RBD) (Homo sapiens, UniProt P01116, G12C)
# Construct: His-tag (N)
# Sequence (P01116 with tags, fused parts or gaps isoform P01116-2 G12C): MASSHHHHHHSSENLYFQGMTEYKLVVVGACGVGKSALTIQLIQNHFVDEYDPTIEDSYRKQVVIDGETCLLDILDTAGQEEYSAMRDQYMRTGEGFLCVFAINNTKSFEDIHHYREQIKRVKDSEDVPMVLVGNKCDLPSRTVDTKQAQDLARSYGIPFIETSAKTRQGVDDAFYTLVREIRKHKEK
# experiment: Inhibitory activity on interaction between KRAS G12C and cRAF (Alpha technology)
# conditionsUsed: GMPPNP-bound KRAS G12C incubated with compound 25° C. 1 hour; Table 2-1; read-out: IC50
readoutName: IC50 (nM)

| compound | readoutName | recordedResult |
| --- | --- | --- |
| CC1(NC/C=C/C(=O)Nc2c(F)cc(C(=O)c3cc4c5c(cccn35)-c3c(cc(N5CCCC5=O)cc3C(F)(F)F)OCC4)cc2F)COC1 (single isomer, unassigned) [Example 183] | IC50 | 35.2 |
| COCc1nc2c3c(c(C(F)(F)F)cc2n1C)-c1cccn2c(C(=O)c4cc(F)c(NC(=O)/C=C/CN[C@H]5CCOC5)c(F)c4)cc(c12)CCO3 [Example 118] | IC50 | 12.6 |
| Cc1cc2c(ncn2C)c2c1-c1cccn3c(C(=O)c4cc(F)c(NC(=O)/C=C/CNC5(C)CC5)c(F)c4)cc(c13)CCN2C [Example 115] | IC50 | 38.9 |

---

Measured pIC50 accompanies every entry in the list below.
# targetSystem: interaction between GMPPNP-bound recombinant K-Ras4B G12C mutant protein and cRAF RAS-binding domain (cRAF-RBD) (Homo sapiens, UniProt P01116, G12C)
# Construct: His-tag (N)
# experiment: Inhibitory activity on interaction between KRAS G12C and cRAF (Alpha technology)
# conditionsUsed: GMPPNP-bound KRAS G12C incubated with compound 25° C. 1 hour; Table 2-1; read-out: IC50
pIC50: −log10 of the molar value.

| compound | pIC50 |
| --- | --- |
| Cn1cnc2c3c(c(C(F)(F)F)cc21)-c1cccn2c(C(=O)c4cc(F)c(NC(=O)/C=C/CN5CC6CC5CCO6)c(F)c4)cc(c12)CCO3 (stereo not drawn) | 7.90 |
| CO[C@H]1CC[C@H](NC/C=C/C(=O)Nc2c(F)cc(C(=O)c3cc4c5c(cccn35)-c3c(Cl)cc5c(nc(C)n5C)c3OCC4)cc2F)CC1 | 7.65 |
| CN1CCc2cc(C(=O)c3cc(F)c(NC(=O)/C=C/CNC4(C)CC4)c(F)c3)n3cccc(c23)-c2c(C(F)(F)F)cc3[nH]cnc3c21 (atropisomer, axis not shown) | 7.74 |
| COc1cc2c(nc(C)n2C)c2c1-c1cccn3c(C(=O)c4cc(F)c(NC(=O)/C=C/CNC(C)(C)C)c(F)c4)cc(c13)CCN2C | 7.48 |
| Cn1cnc2c3c(c(C(F)(F)F)cc21)-c1cccn2c(C(=O)c4cc(F)c(NC(=O)/C=C/CN5CCC[C@@](C)(O)C5)c(F)c4)cc(c12)CCO3 | 7.40 |
| COc1cc2c(nc(C)n2C)c2c1-c1cccn3c(C(=O)c4cc(F)c(NC(=O)/C=C/CN[C@H]5CCOC5)c(F)c4)cc(c13)CCN2C (single isomer, unassigned) | 8.06 |

---

# targetSystem: interaction between GMPPNP-bound recombinant K-Ras4B G12C mutant protein and cRAF RAS-binding domain (cRAF-RBD) (Homo sapiens, UniProt P01116, G12C)
# Construct: His-tag (N)
# experiment: Inhibitory activity on interaction between KRAS G12C and cRAF (Alpha technology)
# conditionsUsed: IC50, GMPPNP-bound KRAS G12C incubated with compound 25° C. 1 hour; Table 2
readoutName: log10 of IC50 (log10 of the value in nM)

| compound | log10 of IC50 |
| --- | --- |
| CO[C@H]1CC[C@H](NC/C=C/C(=O)Nc2c(F)cc(C(=O)c3cn4c5c(cccc35)-c3c(C)cc5c(nc(C)n5C)c3OC[C@H](C)C4)cc2F)CC1 (single isomer, unassigned) [Example 24] | 3.26 |
| CO[C@H]1CC[C@H](NC/C=C/C(=O)Nc2c(F)cc(C(=O)c3cn4c5c(cccc35)-c3c(C(F)(F)F)cc5c(nc(C)n5C)c3CCC4)cc2F)CC1 | 1.72 |
| CO[C@H]1CC[C@H](NC/C=C/C(=O)Nc2c(F)cc(C(=O)c3cn4c5c(cccc35)-c3c(C(F)(F)F)ccc(=O)n3CCC4)cc2F)CC1 | 2.41 |
| CO[C@H]1CC[C@H](NC/C=C/C(=O)Nc2c(F)cc(C(=O)c3cn4c5c(cccc35)-c3c(C)cccc3OCC4)cc2F)CC1 | 2.20 |
| CO[C@H]1CC[C@H](NC/C=C/C(=O)Nc2c(F)cc(C(=O)c3cn4c5c(cccc35)-c3c(cccc3C(F)(F)F)OCC4)cc2F)CC1 (single isomer, unassigned) [Example 11-2] | 1.89 |
| CO[C@H]1CC[C@H](NC/C=C/C(=O)Nc2c(F)cc(C(=O)c3cn4c5c(cccc35)-c3c(C)cc5c(nc(C)n5C)c3OC[C@H](C)C4)cc2F)CC1 (single isomer, unassigned) [Example 23] | 1.28 |
| CO[C@H]1CC[C@H](NC/C=C/C(=O)Nc2c(F)cc(C(=O)c3cn4c5c(cccc35)-c3c(C)cc5c(nc(C)n5C)c3N(C)CC4)cc2F)CC1 | 1.48 |
| CO[C@H]1CC[C@H](NC/C=C/C(=O)Nc2c(F)cc(C(=O)c3cn4c5c(cccc35)-c3c(C)cc5c(nc(C)n5C)c3OCC4)cc2F)CC1 (single isomer, unassigned) [Example 14-1] | 0.95 |
| CO[C@H]1CC[C@H](NC/C=C/C(=O)Nc2c(F)cc(C(=O)c3cn4c5c(cccc35)-c3c(C)cc5c(nc(C)n5C)c3OCC3(CC3)C4)cc2F)CC1 (single isomer, unassigned) [Example 21-1] | 1.64 |
| CO[C@H]1CC[C@H](NC/C=C/C(=O)Nc2c(F)cc(C(=O)c3cn4c5c(cccc35)-c3c(Cl)cccc3OCCCC4)cc2F)CC1 | 3.43 |
| CO[C@H]1CC[C@H](NC/C=C/C(=O)Nc2c(F)cc(C(=O)c3cn4c5c(cccc35)-c3c(C)cc5c(nc(C)n5C)c3N(C)C(=O)C4)cc2F)CC1 | 1.36 |
